Reference source for all entries: paper doi:10.1101/2020.06.18.159665

- SUBJECT_OF_TEST: 6X-HisGSK3β purchased from Signalchem (G09-10H-05) (human, UniProt P49841 1-420)
- Sequence (P49841 whole entry): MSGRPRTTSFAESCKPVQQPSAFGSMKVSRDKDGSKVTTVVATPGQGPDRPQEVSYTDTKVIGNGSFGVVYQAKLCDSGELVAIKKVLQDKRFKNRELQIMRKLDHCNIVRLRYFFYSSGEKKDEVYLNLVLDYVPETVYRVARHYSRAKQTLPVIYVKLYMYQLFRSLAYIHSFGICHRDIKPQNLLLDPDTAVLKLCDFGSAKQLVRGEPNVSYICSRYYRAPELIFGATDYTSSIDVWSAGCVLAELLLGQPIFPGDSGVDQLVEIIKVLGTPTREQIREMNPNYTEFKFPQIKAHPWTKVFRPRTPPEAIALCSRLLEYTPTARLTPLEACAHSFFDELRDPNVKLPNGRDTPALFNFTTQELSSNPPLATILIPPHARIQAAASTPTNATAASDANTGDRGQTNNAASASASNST
- EXPERIMENTAL_PROTOCOL: MST
pKd: −log10 of the molar value.
ASSAY_READOUT: pKd

1) PEVPPTPPGSHSAFTSSFSFIRLSLGSAGERGEAEGCPPSREAE (peptide, UniProt Q9NRI5 193-236, looked up) [hDISCtide, 44-mer peptide derived from human DISC1 (residues 193-236)]    5.24
